Tested on: MDA-MB-175-VII (Breast Carcinoma);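 further: after 72 h of two-drug dosing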
Assay Text: Bliss excess, mean over the matrix (fraction); higher = more synergy
Record form. Attribute: Bliss excess. Fill in for each entry.
# respond with the number and nothing more

IN: Sample CN(CCO)CC[C@H](CSc1ccccc1)Nc1ccc(S(=O)(=O)NC(=O)c2ccc(N3CCC([C@@H](O)c4ccccc4-c4ccc(Cl)cc4)CC3)cc2)cc1S(=O)(=O)C(F)(F)F [AZD4320] + Nc1ccn([C@@H]2O[C@H](CO)[C@@H](O)C2(F)F)c(=O)n1 [Gemcitabine] (first compound max 1 µM, 7x7, partner max 0.3 µM) — what was its Bliss excess?
OUT: 0.125

IN: Again, but for Cc1c2c(nn1C)CSCc1cc(n(C)n1)CSc1cc(c3ccccc3c1)OCCCc1c(C(=O)O)n(C)c3c-2c(Cl)ccc13 [AZD5991] + CS(=O)(=O)CCNCc1ccc(-c2ccc3ncnc(Nc4ccc(OCc5cccc(F)c5)c(Cl)c4)c3c2)o1 [Lapatinib] (first compound max 1 µM, 7x7, partner max 10 µM)
OUT: 0.04

IN: Again, but for O=C(c1cc(Cc2n[nH]c(=O)c3ccccc23)ccc1F)N1CCN(C(=O)C2CC2)CC1 [Olaparib] + COc1nnc2ccc(N3CCC(c4ccc(OCCN5CCN(C)C(=O)[C@H]5C)cc4)CC3)nn12 [AZD5153] (first compound max 10 µM, 7x7, partner max 1 µM)
OUT: -0.0024

IN: Again, but for CN(CCO)CC[C@H](CSc1ccccc1)Nc1ccc(S(=O)(=O)NC(=O)c2ccc(N3CCC([C@@H](O)c4ccccc4-c4ccc(Cl)cc4)CC3)cc2)cc1S(=O)(=O)C(F)(F)F [AZD4320] + C[C@@H]1COCCN1C2=NC(=NC(=C2)C3(CC3)[S@](=N)(=O)C)C4=C5C=CNC5=NC=C4 [AZD6738] (first compound max 1 µM, 7x7, partner max 10 µM)
OUT: -0.0429

IN: Again, but for Cc1c2c(nn1C)CSCc1cc(n(C)n1)CSc1cc(c3ccccc3c1)OCCCc1c(C(=O)O)n(C)c3c-2c(Cl)ccc13 [AZD5991] + CCN(CCO)CCCOc1ccc2c(Nc3cc(CC(=O)Nc4cccc(F)c4)[nH]n3)ncnc2c1 [AZD2811] (first compound max 1 µM, 7x7, partner max 1 µM)
OUT: 0.0441
